assay.overview: HUVEC growth inhibition – cell-based, human, primary screen (AID 575);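 note: 100% = median of untreated cell wells with 0.1% DMSO on each plate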
condition.label: HUVEC proliferation, CellTiter-Glo luminescence, 72 h; at 10 µM; stronger effect = lower value
metric.name: viability (%)
Numbers only; they are read as %.

Some compounds with known viability results, for comparison:
Exercise: What value of viability has been reported for the following compound? "Cc1ccc(-c2cc(C(=O)N3CCCC3)no2)cc1"
Solution: 96

Exercise: I'd like to know its viability. The compound in question is COc1ccccc1NC(=O)C(O)C(O)C(=O)Nc1ccccc1OC (stereo unspecified)
Solution: 116

Exercise: viability lookup needed for "O=C(c1ccco1)N1CCN(S(=O)(=O)c2ccc(C3CCCCC3)cc2)CC1" , thanks.
Solution: 99.9

Exercise: Dear colleague, I am looking for the recorded viability of the following compound: "C=CCc1cccc2cc(C(=O)NCc3cccnc3)c(=O)oc12"
Solution: 95

---
Exercise: For "COc1ccc(N(CC(=O)N2CCN(Cc3ccc4c(c3)OCO4)CC2)S(C)(=O)=O)cc1OC" , what is its reported viability?
Solution: 108

Exercise: Given "CCC(CC)C(=O)Nc1cccc(C(=O)NCc2ccco2)c1" , state its recorded viability.
Solution: 100

----------
Collected viability values appear next to each entry.
assay.overview: HUVEC growth inhibition – cell-based, human, primary screen (AID 575);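 note: 100% = median of untreated cell wells with 0.1% DMSO on each plate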
condition.label: HUVEC proliferation, CellTiter-Glo luminescence, 72 h; at 10 µM; stronger effect = lower value
Write down the numeric answer in % and omit the unit.

Example entries begin here.
Exercise: Reported viability for "Cc1c(C(=O)NCc2ccccc2)oc2c1C(=O)CCC2" : what is it?
Solution: 75.2

Exercise: State the recorded viability for this entry: "CCc1ccc2c(CN(CC)Cc3nc4ccccc4c(=O)[nH]3)cc(=O)oc2c1"
Solution: 75.4

Exercise: Which value of viability has been reported for "CNC(=O)CSc1nnc(-c2cc3c(C)nn(-c4ccccc4)c3s2)n1C" in the records?
Solution: 99.2

Exercise: Recorded viability for COc1ccc2cc(CN(Cc3ccco3)C(c3nnnn3C3CCCCC3)C(C)C)c(=O)[nH]c2c1 (stereo unspecified) , please?
Solution: 47.1

Exercise: Entry "CC1CCN(C(=O)Cn2c(=O)oc3ccccc32)CC1" : reported viability = ?
Solution: 95.1

Exercise: I'd like to know its viability. The compound in question is CCC(C)NC(=O)C1CCCN(S(=O)(=O)c2ccc(-n3cnnn3)cc2)C1 (stereo unspecified)
Solution: 104

Exercise: Reported viability, compound "CC(=O)N1CCN=C1SCc1c(F)cccc1Cl" : ____
Solution: 73.1

Exercise: What measured viability goes with "C=CCOc1ccc(/C=N/n2cncn2)cc1OC" ?
Solution: 103

Exercise: Look up viability for this compound: "CC(=O)c1c(C)nc(C)nc1NC(=O)Cc1ccccc1"
Solution: 93.9

Exercise: If you can, please state the reported viability value of "Cc1cc(C)n(-c2ccc(C(=O)Oc3ccc4c(c3)OCO4)cc2)n1" .
Solution: 92.3

Now examine the next entry.
Exercise: Fill blank: measured viability of the compound "Nc1nnn(Cc2ccccc2)n1" is ____.
Solution: 100

----------
Measured viability, listed per entry for reference.
assay.overview: reversal of MRP1-mediated doxorubicin resistance, pilot screen, H69AR cells, doxorubicin co-treatment (AID 601)
condition.label: H69AR cells + 2 uM doxorubicin, CellTiter-Glo, 72 h; measured here: viability with 2 uM doxorubicin; at 10 µM; stronger effect = lower value
I only need the number, in %, no unit after it.

Exercise: Bench note: what viability did "O=C(COC(=O)C1CCN(S(=O)(=O)c2cccs2)CC1)c1cc2ccccc2o1" show?
Solution: 93.8

Exercise: What does the record list as viability for COc1ccc(-c2cc(C(F)F)n3ncc(C(=O)NCC4CCCO4)c3n2)cc1 (stereo unspecified) ?
Solution: 77.2

Exercise: Bench note: what viability did "Cc1[nH]c(=O)[nH]c(=O)c1S(=O)(=O)N(C)Cc1ccccc1" show?
Solution: 92.5

More entries:
Exercise: Fill in the blank: the reported viability of "COc1cccc(CNc2cccc3cccnc23)c1O" is ____.
Solution: 93

Exercise: Could you share which viability value was measured for "CCN(CC)S(=O)(=O)c1cccc2c(N(C)C)cccc12" ?
Solution: 89.2

Exercise: Quick one: viability of CCOC(=O)c1sc(N2C(=O)C(O)=C(C(=O)c3ccco3)C2c2ccccc2)nc1C (stereo unspecified) ?
Solution: 82.9
